test details: yeast display, Sf9 membrane polyspecificity reagent, FACS + sequencing; frameworks hold sequencing errors
measure: polyreactivity (PSR sort gate)

QVQLVDSGGGLVQAGGSHRLSCAASGRIFGDNAMGWYRQAPGKERELVAAIDWNDGNTYYADSVKGRFTISRDNANNTVYLQMNSLKPEDTAVYYCNTAGQDAEYDYWGQGTQVTVSS : low polyreactivity
QVQLVESGGGLVQAGGSLRLSCAASGRTFYSNAMGWYRQAPGKETELVAAISNRGGSTYYADSLKGRFTISRDNAKNTVYLQMNSLKPEYTAVYYCARYPTKYGYWGQGTQVTVSS : high polyreactivity
QVQLVESDGGLVQAGGSLRLSCAASGSTFNVYAMGWNRQAPGKERELVAAITSGGSTYYADSVKGRFTISRDNANNTVYLQMISQKPEDTAVYYCADDVSLSVFKLDYWGQGTQLTVSS : low polyreactivity
QVQLVESGGGLVQAGGSLRLRCASSGSIFYWYAMGWYRQAPGKERELVAAISRSGGSTYYADSVKGRFTISRDNAKNTVYLQMNSLKPEDTAVYYCATELSYRHGYWGQGTQVTVSS : high polyreactivity
QVQLVESGGGLVQAGRSLRLSCAASGRTFSVNAMGCYRQAPVKERELVAAISWDGGSTYYADSVKGRFTISRDNAKNTVYLQMISLKPEDTSVYDCNKDLYYAYDYWGQGSQVTVSS : low polyreactivity

----------
test details: yeast display, Sf9 membrane polyspecificity reagent, FACS + sequencing; frameworks hold sequencing errors
measure: polyreactivity (PSR sort gate)

QVQLVESGGGLVQAGGSLRLSCAASGSTFQWYAMGWYRQAPGKERELVAAINKSGGTTYYADSVKGRFTISRDNAKNTVYLQMNSLKPEDTAVYYCAADTQQRGVYPRWWNPEFDYWGLGTQVTVSS : low polyreactivity
QVQLVESGGGLVQAGGSLRLSCAASGRIFNRNAMGWYRQAPGKERELVAAITRGGRTNYADSVKGRFTISRDNAQNTVYLHMNSLKPEDTAVYYCAAAYYGSHCRYDYWGQGTQVTVSS : high polyreactivity
QVQLVESGGGLVQAGGSLRLSCAASGFIFYDYAMGWYRQAPGKERELVAVITSGGSTYYADSVKGRFTISRDNAKNTVYLQMNSLKPEDTAVYYCNADWVFTWYDYPNDKYDYWGQGTQVTVSS : low polyreactivity
QVQLVESGGGLVQAGGSLRLSCAASGIIFQGNAMGWYRQAPGKERELVAVITSRGGSTYYADSVKGRFTISRDNAKNTVYLQMNSLLPEDTAVYYCAKAKRYPQYYYWGQGTQVTVSS : high polyreactivity
HEQLVESGGGLVQAGGSLRLICAASGRIFPRYAMGRYRQAPGKEMELVAAITKRDGSTYYADSVKGRFTISRDNAKNTVYLQMNSLKPEDSAVYYCATRRLYSKSWYYYWGQGTQVTVSS : high polyreactivity
QVQLVESGGGLVQAGGSLRLSCAASGRIFSYYAMGWYRQAPGKERELVAAITSGGRTNYADSVKGRFTISRDNAKNTVYLQMNSLNPEDTAVYYCAAIFGYGSTWCRWGKDDYWGQGTQVTVSS : high polyreactivity
QVQLVESGGGLVQAGGSLRLSCAASGRTFWDYAMGWYRQAPGKERELVAAITGGDSTYADSVKGRFTISRDNAKNTVYLQMNSLKPEDTAVYYCNADSTWDPYVRWALLYEYWGQGTQVTVSS : low polyreactivity
QVHLVESGGGLVQAGGSLRLSCAASGITFYYYAMGWYRQAPGKERELVAAIDTDGSTYYADSVKGRFTVSRDNAKNTVYLQMNILKPEDTAVYYCAAVIEYYPYSGYIYDYWGQGSQVTVSS : high polyreactivity
QVQHVESGGGLVQAGGSLRLSSAASGRTFYYNAMGWYRQAPGKERELVASITITDSTNYADSVKGRFTISRDNAKNTVYLQMNSLKPEDTAVYYCAKRGWGTSFYLSDYWGQGTQVTVSS : low polyreactivity
QVHLQESRGGLVQAGGSLRLSCAASGIIFDNPNMGCYRQAPGKERELVATINSGATTNYADSVKGRFTISRDNAKNTVYLQMNSLIPEDTAVYYCAVDLSPTYFYYWGQGTQVTVSS : high polyreactivity
QVQLVESVVGLVQAGGSLRLSSAASGRIFNQYGMGWYRQSPGKESELVAAIRSGDSTNYADSVKGRFTISRDNAKNTVYLQMNSLKPEDTAVYYCARDLPGDYAGFDYWGQGTQVTVSS : low polyreactivity
